Would you mind telling me the reported Plant response rating, Giant foxtail of each entry?
test system: giant foxtail; test: Test B pre/postemergence giant foxtail; assay type: in vivo, Setaria faberii; details: Preemergence, Rate 125 g/ha; scale of 0 to 10 where 0 is no effect and 10 is complete control
One number for each entry.

Sample answers from the record:
Molecule	Readout number
Cc1nc(Cl)sc1C(C)n1c(=O)on(C(=O)N(c2ccccc2)C(C)C)c1=O (centres unmarked)	6
CC(C)N(C(=O)n1oc(=O)n(COCC[Si](C)(C)C)c1=O)c1ccc(Cl)cc1	7
CCOP(=O)(OCC)C(C)n1c(=O)on(C(=O)N(c2ccccc2)C(C)C)c1=O (centres unmarked)	2
CC(C)N(C(=O)n1oc(=O)n(CC2=NOCCO2)c1=O)c1ccc(F)cc1F	9
Cc1nc(Cl)sc1C(C)n1c(=O)on(C(=O)N(c2ccc(F)cc2)C(C)C)c1=O (centres unmarked)	6
CC1CC1Cn1c(=O)on(C(=O)N(c2ccc(F)cc2)C(C)C)c1=O (centres unmarked)	10
C=C[Si](C)(C)Cn1c(=O)on(C(=O)N(c2ccc(Cl)cc2)C(C)C)c1=O	10
CC(C)N(C(=O)n1oc(=O)n(CCN(C)C(=O)c2ccccc2)c1=O)c1ccccc1	0
CC(C)N(C(=O)n1oc(=O)n(CC(F)F)c1=O)c1ccc(Cl)cc1	10
C=C(C)CCn1c(=O)on(C(=O)N(c2ccccc2)C(C)C)c1=O	8

Below: the item to evaluate.
Q. Indicate the recorded Plant response rating, Giant foxtail value for this molecule: "CC(C)N(C(=O)n1oc(=O)n(CCC(F)(F)F)c1=O)c1ccc(F)cc1"
A. 10

###

test system: surinam grass; assay: Test B pre/postemergence surinam grass; format: in vivo, Brachiaria decumbens; conditions: Postemergence, Rate 125 g/ha; scale 0 to 10, 0 is no effect, 10 is complete control
Attribute measured: Plant response rating, B. signalgrass
Numbers only.

Example entries and their recorded answers appear below.
Compound	Readout number
CC(C)N(C(=O)n1oc(=O)n(C(CF)CF)c1=O)c1ccc(F)cc1 [Compound 390]	5
CC(C)N(C(=O)n1oc(=O)n(CCC(F)(F)F)c1=O)c1ccc(F)cc1 [Compound 397]	0
C=C(C)CCn1c(=O)on(C(=O)N(c2ccccc2)C(C)C)c1=O [Compound 418]	0

Next item in the queue.
Q. Determine from records and report Plant response rating, B. signalgrass for CC1CC1Cn1c(=O)on(C(=O)N(c2ccc(F)cc2)C(C)C)c1=O (stereo not shown) [Compound 402]
A. 2

###

tested on: crabgrass; assay: Test B pre/postemergence crabgrass; assay type: in vivo, Digitaria sanguinalis; details: Preemergence, Rate 500 g/ha; scale 0 to 10, 0 is no effect, 10 is complete control
Attribute measured: Crabgrass plant response rating
Give bare numbers.

The cases that follow already have their Crabgrass plant response rating on record.
Compound	System name	Attribute measured	Readout number
CC(C)N(C(=O)n1oc(=O)n(COCC[Si](C)(C)C)c1=O)c1ccc(Cl)cc1	crabgrass	Crabgrass plant response rating	8
CC(C)N(C(=O)n1oc(=O)n(CCC(F)(F)F)c1=O)c1ccc(F)cc1	crabgrass	Crabgrass plant response rating	10
Cc1nc(Cl)sc1C(C)n1c(=O)on(C(=O)N(c2ccccc2)C(C)C)c1=O (stereo not drawn)	crabgrass	Crabgrass plant response rating	9
CC[Si](C)(C)Cn1c(=O)on(C(=O)N(c2ccc(F)cc2)C(C)C)c1=O	crabgrass	Crabgrass plant response rating	10
CC(C)N(C(=O)n1oc(=O)n(CCC#N)c1=O)c1ccccc1	crabgrass	Crabgrass plant response rating	10

Please turn your attention to the following entry.
Q. Give the measured Crabgrass plant response rating for C=CC(OC)n1c(=O)on(C(=O)N(c2ccc(F)cc2)C(C)C)c1=O (stereo not drawn)
A. 5

###

tested on: crabgrass; test: Test B pre/postemergence crabgrass; format: in vivo, Digitaria sanguinalis; settings: Postemergence, Rate 125 g/ha; scale of 0 to 10 where 0 is no effect and 10 is complete control
Exercise: state measured Crabgrass plant response rating for each of the compounds provided.
Give bare numbers.

Compound	Readout number
CC(C)N(C(=O)n1oc(=O)n(Cc2ccccc2)c1=O)c1ccccc1 [Compound 94]	3
CC(C)N(C(=O)n1oc(=O)n(C(C)C)c1=O)c1ccc(F)cc1F [Compound 109]	9
C=C(Cn1c(=O)on(C(=O)N(c2ccccc2)C(C)C)c1=O)C(C)C [Compound 649]	2

# input for lookup
Q. Query Crabgrass plant response rating for CC(C)N(C(=O)n1oc(=O)n(Cc2nnc(Cl)s2)c1=O)c1ccc(Cl)cc1 [Compound 653]
A. 0

###

tested on: crabgrass; test: Test B pre/postemergence crabgrass; assay type: in vivo, Digitaria sanguinalis; details: Postemergence, Rate 62 g/ha; scale 0 to 10, 0 is no effect, 10 is complete control
Attribute measured: Plant response rating, Crabgrass

Compound	Plant response rating, Crabgrass
COC1CCC(Cn2c(=O)on(C(=O)N(c3ccc(F)cc3)C(C)C)c2=O)=NO1 (stereo not drawn)	2
CC(C)N(C(=O)n1oc(=O)n(CC2=NOCCO2)c1=O)c1ccc(F)cc1	3
CC(C)N(C(=O)n1oc(=O)n(Cc2nnc(Cl)s2)c1=O)c1ccc(Cl)cc1	0

Please give Plant response rating, Crabgrass for each item listed below.
1. CCOC(Cn1c(=O)on(C(=O)N(c2ccc(F)cc2)C(C)C)c1=O)OCC
2. CC(C)N(C(=O)n1oc(=O)n(CF)c1=O)c1ccc(F)cc1
3. CC(C)N(C(=O)n1oc(=O)n(CC(F)F)c1=O)c1ccc(Cl)cc1

A.
1: 1; 2: 2; 3: 4

###

test system: sugar beet; experiment: Test B pre/postemergence sugar beet; format: in vivo, Beta vulgaris; conditions: Postemergence, Rate 250 g/ha; scale 0 to 10, 0 is no effect, 10 is complete control
Provide the reported Plant response rating, Sugarbeets of each item.
One number for each entry.

Compound	Plant response rating, Sugarbeets
CC(C)N(C(=O)n1oc(=O)n(C(CF)CF)c1=O)c1ccccc1	3

Hi! Can you tell me Plant response rating, Sugarbeets for each of these compounds?
1. CC(C)N(C(=O)n1oc(=O)n(C2(C)CC2)c1=O)c1ccc(F)cc1
2. C=C(C)CCn1c(=O)on(C(=O)N(c2ccccc2)C(C)C)c1=O
3. Cc1nc(Cl)sc1C(C)n1c(=O)on(C(=O)N(c2ccccc2)C(C)C)c1=O (stereo not shown)

A.
[2, 0, 0]

###

Kindly state B. signalgrass plant response rating for each of the entries shown.
tested on: surinam grass; assay: Test B pre/postemergence surinam grass; type: in vivo, Brachiaria decumbens; conditions: Preemergence, Rate 500 g/ha; scale 0 to 10, 0 is no effect, 10 is complete control
Numbers only.

Please review the following examples before continuing.
Compound	B. signalgrass plant response rating
C=CC(OC)n1c(=O)on(C(=O)N(c2ccc(F)cc2)C(C)C)c1=O (stereo not shown)	0
CCC=CCn1c(=O)on(C(=O)N(c2ccccc2)C(C)C)c1=O	4
CC[Si](C)(C)Cn1c(=O)on(C(=O)N(c2ccc(F)cc2)C(C)C)c1=O	1

Q. Fill in reported B. signalgrass plant response rating for this entry: "CC(C)N(C(=O)n1oc(=O)n(CCC2OCCCO2)c1=O)c1ccc(F)cc1F"
A. 10

###

tested on: cocklebur; assay: Test B pre/postemergence cocklebur; assay type: in vivo, Xanthium strumarium; settings: Preemergence, Rate 250 g/ha; scale 0 to 10 (0 no effect, 10 complete control)
Attribute measured: Plant response rating, Cocklebur
One number for each entry.

Here are 3 compounds together with their reported answers.
Compound	Plant response rating, Cocklebur
CC(C)N(C(=O)n1oc(=O)n(C(C)C2CCC2)c1=O)c1ccc(F)cc1F (stereo not shown)	0
CC(C)N(C(=O)n1oc(=O)n(CC(=O)C2CCC2)c1=O)c1ccc(F)cc1	0
CCOC(Cn1c(=O)on(C(=O)N(c2ccc(F)cc2)C(C)C)c1=O)OCC	3

Q. Supply reported Plant response rating, Cocklebur belonging to this compound: CCOC(=O)CC(C(=O)OCC)n1c(=O)on(C(=O)N(c2ccc(F)cc2)C(C)C)c1=O (stereo not shown)
A. 0

###

system: cocklebur; assay: Test B pre/postemergence cocklebur; assay type: in vivo, Xanthium strumarium; conditions: Postemergence, Rate 1000 g/ha; scale 0 to 10 (0 no effect, 10 complete control)
Attribute measured: Cocklebur plant response rating
Give bare numbers.

Compound	Readout number
CCOP(=O)(Cn1c(=O)on(C(=O)N(c2ccc(F)cc2)C(C)C)c1=O)OCC [Compound 587]	0
CCN(C(=O)n1oc(=O)n(N(C)c2ccccc2)c1=O)C1CCCCC1 [Compound 183]	0
CCOP(=O)(Cn1c(=O)on(C(=O)N(c2ccc(F)cc2F)C(C)C)c1=O)OCC [Compound 736]	10

Q. Note Cocklebur plant response rating for the compound shown: CC(C)N(C(=O)n1oc(=O)n(C2CCCC(C(F)(F)F)C2)c1=O)c1ccc(F)cc1 (stereo not shown) [Compound 184]
A. 2

###

tested on: wheat; assay: Test B pre/postemergence wheat; format: in vivo, Triticum aestivum; conditions: Preemergence, Rate 500 g/ha; scale of 0 to 10 where 0 is no effect and 10 is complete control
Attribute measured: Plant response rating, Wheat
Numbers only.

For orientation, consider the following solved cases.
Molecule	Plant response rating, Wheat
Cc1noc(C)c1Cn1c(=O)on(C(=O)N(c2ccc(F)cc2)C(C)C)c1=O	0
CCOC(=O)CC(C(=O)OCC)n1c(=O)on(C(=O)N(c2ccc(Cl)cc2)C(C)C)c1=O (stereo not drawn)	0
CCN(C(=O)n1oc(=O)n(N(C)C)c1=O)C1CCCCC1	0
C=CCn1c(=O)on(C(=O)N(c2c(C)cccc2C)C(C)COC)c1=O (stereo not drawn)	0
Cc1nc(C)c(-n2c(=O)on(C(=O)N(c3ccc(Cl)cc3)C(C)C)c2=O)s1	0

Field: Plant response rating, Wheat. Fill in for each record below.
1. CC(C)N(C(=O)n1oc(=O)n(CCCC#N)c1=O)c1ccc(F)cc1F
2. CCC=CCn1c(=O)on(C(=O)N(c2ccc(F)cc2)C(C)C)c1=O
3. CCOC(Cn1c(=O)on(C(=O)N(c2ccc(Cl)cc2)C(C)C)c1=O)OCC
4. CC(=O)OCn1c(=O)on(C(=O)N(c2ccc(F)cc2)C(C)C)c1=O

A.
1: 9; 2: 2; 3: 0; 4: 0
